Test system: SR leukemia
Assay: NCI-60 one-dose screen, 48 h (100 = growth as untreated, 0 = no growth, -100 = all killed)
Settings: 10 µM unless noted
This is part of a sample that, as a whole, favours compounds with a hit. Of some 83,000 tested, about 20% had one in any assay. Calls of active or inactive are those of the source. How the source made its calls: active means growth percent below 10; inactive means the rest.
The following compounds are shown together with reported growth values.
REPORTED METRIC: growth

> print(dat)
                                    compound  assay.target    value.reported
 1  COc1cc(C2C=C(C)N=C3SC=CN32)cc(OC)c1OC (stereo unspecified)   SR leukemia   106% (inactive)
 2        CCOC(=O)CC(C#N)(CC(=O)OCC)C(=O)OCC   SR leukemia   100% (inactive)
 3  C#CCN1C(=O)/C(=c2\sc3n(c2=O)NC2C(N=3)N(CC)C(=O)N2CC)c2ccccc21 (stereo unspecified)   SR leukemia  15.5% (inactive)
 4  CC(=O)Nc1nc(C(=O)N2N=C(C)/C(=C/c3cccs3)C2=O)cs1   SR leukemia  91.9% (inactive)
 5  O=C(Nc1ccc(OCc2nnc(-c3ccc(Cl)cc3)o2)c(F)c1)Nc1ccc(Cl)c(Cl)c1   SR leukemia  21.4% (inactive)
 6               O=S=Nc1ccc([N+](=O)[O-])cc1   SR leukemia  90.3% (inactive)
 7  O=C(CNC(=O)c1cccc2ccccc12)Nc1ccccc1Oc1ccccc1   SR leukemia  13.1% (inactive)
 8  COc1cc(CCn2nnc3c(Nc4ccc(N5CCOCC5)cc4)ncnc32)cc(OC)c1   SR leukemia  64.2% (inactive)
 9                       CCCOC(=O)C1(O)CCCC1   SR leukemia  94.4% (inactive)
10                 OCc1c(-c2ccccc2)nc2sccn12   SR leukemia   103% (inactive)
11  CCN(C(=O)c1cc2ccccc2[nH]1)[C@H]1CCC[C@@H](NCc2ccc(OC)cc2)C1   SR leukemia  69.2% (inactive)
